- assay_remarks: chemical genetic growth profiling, strain panel (AID 1159580);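 further: tested at 20 µM; growth read once vehicle control cultures reached saturation at 30 °C; 1 = growth at the plate median or of vehicle wells; lower values mean less growth of the strain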
- test_settings: S. cerevisiae deletion strains, growth OD, locus YKR001C, strain vps1, stronger effect = lower value
The whole screen tested about 5,500 compounds, of which about 2,000 (36%) were called active. Roughly 18% stayed inconclusive and do not appear here. Some of the results follow.
Answer each item with its documented normalized growth.
Lab note: write the figure by itself, no unit.

Task item: For CN1CCN(C2=Nc3ccccc3Oc3ccc(Cl)cc32)CC1 , what is its reported normalized growth?
Reply: 0.998

Task item: Also Cc1nc2ccccn2c(=O)c1CCN1CCC(C(=O)c2ccc(F)cc2)CC1 ?
Reply: 0.995

Task item: Also CC(CCC(=O)O)[C@H]1CCC2C3CC[C@@H]4C[C@H](O)CC[C@]4(C)C3C[C@H](O)[C@@]21C (stereo partly specified) ?
Reply: 1.01

Task item: Also CC(C)CCCC(C)C1CCC2C3CC[C@H]4CCCC[C@]4(C)C3CC[C@]12C (stereo partly specified) ?
Reply: 0.996

Task item: Also CC(CCC(=O)O)[C@H]1CCC2C3CC[C@@H]4CCCC[C@]4(C)C3CC[C@@]21C (stereo partly specified) ?
Reply: 0.998

Task item: Also COC(=O)CCC(C)[C@H]1CCC2C3C(C[C@H](O)[C@@]21C)[C@@]1(C)CC[C@@H](O)C[C@H]1C[C@H]3O (stereo partly specified) ?
Reply: 1

====

- assay_remarks: chemical genetic growth profiling, strain panel (AID 1159580)
- test_settings: S. cerevisiae deletion strains, growth OD, locus YAL021C, strain ccr4, stronger effect = lower value
The campaign covered roughly 5,500 compounds. About 2,000 (36%) were called active. Inconclusive results (about 18%) are left out. The list shows a part of the results.
measurement_name: normalized growth

Task item: For COc1c2ccoc2nc2c(OC)c(OCC(O)C(C)(C)O)ccc12 (configuration not stated) , what is its reported normalized growth?
Reply: 1.04 (inactive)

Task item: Also CCCCCC1C(=O)CCC1CC(=O)O (configuration not stated) ?
Reply: 0.984 (inactive)

Task item: Also CN(C)CCOC(=O)COc1ccc(Cl)cc1 ?
Reply: 0.955 (inactive)

Task item: Also N[C@H](Cc1ccccc1)C(=O)O ?
Reply: 1.01 (inactive)

Task item: Also Nc1ccncc1 ?
Reply: 0.996 (inactive)

Task item: Also O=c1cc(-c2ccccc2)oc2c(O)c(O)ccc12 ?
Reply: 0.913 (inactive)

Task item: Also Nc1cc(C(Cl)=C(Cl)Cl)c(S(N)(=O)=O)cc1S(N)(=O)=O ?
Reply: 0.98 (inactive)

Task item: Also CCCCS(=N)(=O)CCC(N)C(=O)O (configuration not stated) ?
Reply: 0.983 (inactive)

Task item: Also CN(C)C(=O)Nc1ccc(Cl)c(Cl)c1 ?
Reply: 0.964 (inactive)

Task item: Also C=C[C@H]1CN2CC[C@H]1C[C@@H]2[C@H](O)c1ccnc2ccccc12 ?
Reply: 1.01 (inactive)

Task item: Also CCN(CCCc1ccccc1)CCCc1ccccc1 ?
Reply: 0.915 (inactive)

Task item: Also Cc1cc(C)cc(OCC2CNC(=O)O2)c1 (configuration not stated) ?
Reply: 0.995 (inactive)

Task item: Also CC(CN1c2ccccc2Sc2ccccc21)N(C)C (configuration not stated) ?
Reply: 0.902 (active)

Task item: Also CC(CN(C)C)CN1c2ccccc2Sc2ccccc21 (configuration not stated) ?
Reply: 0.99 (inactive)

Task item: Also CCCCCC1C(=O)CCC1CC(=O)OC (configuration not stated) ?
Reply: 1.04 (inactive)

Task item: Also CCCCC[C@H](CC(=O)NO)C(=O)N[C@H](C(=O)N1CCC[C@H]1CO)C(C)C ?
Reply: 1.02 (inactive)

Task item: Also CC(=O)OCC(=O)[C@@]1(O)[C@H](OC(C)=O)CC2C3CCC4=CC(=O)C=C[C@]4(C)[C@@]3(F)[C@@H](O)C[C@@]21C (some centres not stated) ?
Reply: 0.982 (inactive)

Task item: Also CCCC(C(=O)OCCN(CC)CC)(c1ccccc1)c1ccccc1 ?
Reply: 0.981 (inactive)

Task item: Also O=c1cc(-c2ccccc2)oc2cc(O)c(O)cc12 ?
Reply: 0.934 (inactive)

Task item: Also CN(C)CCOC(=O)C(c1ccccc1)C1(O)CCCC1 (configuration not stated) ?
Reply: 0.987 (inactive)

Task item: Also CCN(CC)CCOC(=O)C(c1ccccc1)c1ccccc1 ?
Reply: 0.964 (inactive)

Task item: Also NC(Cc1ccc(F)cc1)C(=O)O (configuration not stated) ?
Reply: 0.987 (inactive)

====

- assay_remarks: chemical genetic growth profiling, strain panel (AID 1159580)
- test_settings: S. cerevisiae deletion strains, growth OD, locus YJL129C, strain trk1, stronger effect = lower value
In all, about 5,500 compounds went through this assay and about 2,000 (36%) were called active. Another 18% or so got no clear call; they are omitted. The list shows a part of the results.
// NB: equality with 1 counts as no (0); only normalized growth strictly below is yes (1)

Task item: Criterion: normalized growth strictly below 1. Is it met by C[C@@H]1O[C@@H](O[C@H]2C[C@@H](O)[C@]3(CO)C4C(CC[C@]3(O)C2)[C@@]2(O)CC[C@H](C3=CC(=O)OC3)[C@@]2(C)C[C@H]4O)[C@H](O)[C@H](O)[C@H]1O (stereo partly drawn) ?
Reply: no (0)

Task item: Also C[C@H](CCC(=O)O)[C@H]1CCC2C3C(CC[C@@]21C)[C@@]1(C)CC[C@@H](O)C[C@H]1C[C@H]3O (stereo partly drawn) ?
Reply: no (0)

Task item: Also O=c1cc(-c2ccccc2)oc2cc(O)c(O)c(O)c12 ?
Reply: yes (1)

Task item: Also O=c1cc(-c2ccccc2)oc2cc(O)c(O)cc12 ?
Reply: yes (1)

====

- assay_remarks: chemical genetic growth profiling, strain panel (AID 1159580);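 further: tested at 20 µM; growth read once vehicle control cultures reached saturation at 30 °C; 1 = growth at the plate median or of vehicle wells; lower values mean less growth of the strain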
- test_settings: S. cerevisiae deletion strains, growth OD, locus YHR094C, strain hxt1, stronger effect = lower value
Among all 5,500 compounds or so, about 2,000 (36%) were called active. Not shown: some 18% with an inconclusive outcome. The list shows a part of the results.
Answer each item with its documented normalized growth.

Task item: For CC(CCC(=O)O)[C@H]1CCC2C3CC[C@@H]4CCCC[C@]4(C)C3CC[C@@]21C (stereo not given in full) , what is its reported normalized growth?
Reply: 0.985 (inactive)

Task item: Also COC(=O)CCC(C)[C@H]1CCC2C3C(C[C@H](O)[C@@]21C)[C@@]1(C)CC[C@@H](O)C[C@H]1C[C@H]3O (stereo not given in full) ?
Reply: 1.06 (inactive)

Task item: Also c1ccc2c(c1)CN1CCCC1=N2 ?
Reply: 0.991 (inactive)

Task item: Also CNCCCN1c2ccccc2CCc2ccccc21 ?
Reply: 0.995 (inactive)

Task item: Also C[C@H](CCC(=O)O)[C@H]1CCC2C3C(CC[C@@]21C)[C@@]1(C)CC[C@@H](O)C[C@H]1C[C@@H]3O (stereo not given in full) ?
Reply: 0.982 (inactive)

====

- assay_remarks: chemical genetic growth profiling, strain panel (AID 1159580);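 further: tested at 20 µM; growth read once vehicle control cultures reached saturation at 30 °C; 1 = growth at the plate median or of vehicle wells; lower values mean less growth of the strain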
- test_settings: S. cerevisiae deletion strains, growth OD, locus YHR079C, strain IRE1 (second series), stronger effect = lower value
Screen size: about 5,500 compounds; about 2,000 (36%) were called active. Not shown: some 18% with an inconclusive outcome. This is one part of the list.
measurement_name: normalized growth
Lab note: write the figure by itself, no unit.

Task item: For Cc1cc(C)cc(OCC2CNC(=O)O2)c1 (stereo not given) , what is its reported normalized growth?
Reply: 1.02

Task item: Also CC1CCC2(OC1)OC1CC3C4CCC5C[C@@H](O)CCC5(C)C4=CCC3(C)C1[C@@H]2C (stereo not given in full) ?
Reply: 0.983

Task item: Also CC(CCC(=O)O)[C@H]1CCC2C3CC[C@@H]4C[C@H](O)CC[C@]4(C)C3CC[C@@]21C (stereo not given in full) ?
Reply: 1.06

Task item: Also CC(=O)O[C@H]1CC[C@]2(C)C3C(=O)[C@@H](OC(C)=O)[C@@]4(C)C(C[C@@H]5O[C@]6(CCC(C)CO6)[C@@H](C)[C@@H]54)C3CC[C@H]2C1 (stereo not given in full) ?
Reply: 0.99

Task item: Also CC(CCC(=O)O)[C@H]1CCC2C3CC[C@@H]4CCCC[C@]4(C)C3CC[C@@]21C (stereo not given in full) ?
Reply: 0.981

====

- assay_remarks: chemical genetic growth profiling, strain panel (AID 1159580);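 further: tested at 20 µM; growth read once vehicle control cultures reached saturation at 30 °C; 1 = growth at the plate median or of vehicle wells; lower values mean less growth of the strain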
- test_settings: S. cerevisiae deletion strains, growth OD, locus YHR094C, strain hxt1, stronger effect = lower value
In all, about 5,500 compounds went through this assay and about 2,000 (36%) were called active. Inconclusive results (about 18%) are left out. The list shows a part of the results.
measurement_name: normalized growth
Lab note: write the figure by itself, no unit.

Task item: For S=P(N1CC1)(N1CC1)N1CC1 , what is its reported normalized growth?
Reply: 1

Task item: Also Nc1cc(-c2ccncc2)c[nH]c1=O ?
Reply: 0.978

Task item: Also CCCCCC1C(=O)CCC1CC(=O)O (centres undefined) ?
Reply: 0.969

Task item: Also C[C@@H](N)[C@@H](O)c1ccccc1 ?
Reply: 0.973

Origin of measurements: PubChem BioAssay AID1159580
